Molecular target: T1, Recombinant human PSGL-1(ECD)-hFc1 (R&D Systems, Cat. 3345-PS) (human, UniProt Q14242 42-305)
T1 construct: Bought; Gln42-Val295 counted on AAC50061; also called PSGL-1-Fc; PSGL-1-hFc1 chimera; not shown: human IgG1 Fc, Pro100-Lys330
T1 sequence: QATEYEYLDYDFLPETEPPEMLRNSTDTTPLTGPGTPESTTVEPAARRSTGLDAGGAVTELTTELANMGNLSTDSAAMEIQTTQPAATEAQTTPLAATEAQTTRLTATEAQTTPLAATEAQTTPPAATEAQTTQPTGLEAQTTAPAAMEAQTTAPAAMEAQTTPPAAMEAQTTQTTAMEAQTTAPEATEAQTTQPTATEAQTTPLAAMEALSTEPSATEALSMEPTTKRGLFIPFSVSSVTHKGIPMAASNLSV
Test: blocking ELISA vs P-selectin-Fc
ENDPOINT: % max Block (%)
API: value field is a number in %; no unit string.

Which % max Block is listed for 16L15 (antibody, V domains shown, From mouse immunisation; only variable domains given) VH: DVKLVESGGGLVKLGGSLKLSCAASGFTFSSYYMSWVRQTPEKRLEWVATISNGGGSTYYPDSVKDRFTISRDNAKNTLYLQMSSLNSEDTAVYYCAKPLYYSNPWFAYWGQGTLVTVSA VL: DVLLTQTPLSLPVSLGDQASISCRSSQSIVHSNGNTYLEWYLQKPGQSPKLLIYKVSNRFSGVPDRFSGSGSGTDFTLKISRVEAEDLGVYYCFQGSHVPRTFGGGTKLEIK ?
100

Form field: reported % max Block of 9F9 (antibody, V domains shown, Control anti-PSGL-1 mAb, recombinant; only variable domains given; also called 9F6) VH: EVQLVETGGGLVQPKGSLKLSCAASGFTFNTNAMNWVRQAPGKGLEWVARIRSKSNNYATYYADSVKDRFTISRDDTQSMIYLQMNNLKTEDTGMYYCVRGGSYWYFDVWGAGTTVTVSS VL: DVLMTQTPLSLPVSLGDQASISCRSSQSIVNSNGNTYLEWYLQKPGQSPKLLIYKVSNRFSGVPDRFSGSGSGTDFTLKISRVEAEDLGVYYCFQGSHVPWTFGGGTKLEIK
100

Field request: % max Block | item: 03D07 (antibody, IgG4, V domains shown) VH: EVKLLESGGGLVQPGGSLRLSCAASGFTFSSYALSWVRQAPGKGLEWVSAISGSGGNTYYADSVKGRFTISRDNSKNTLYLQMNSLRAEDTAVYYCAKVVGATNYWGQGTLVTVSS VL: DIVMTQTPLSLPVTLGQPASISCRSSQSLVYSDGHTYLSWFHQRPGQSPRRLIYKVSIRDSGVPDRFSGSGSGTDFTLKISRVEAEDVGVYYCMQRLQIPLTFGGGTKVEIK
100

What value of % max Block has been recorded for this entry: 15A7 (antibody, V domains shown, Control mAb, recombinant; also called h15A7; 15A17) VH: EVQLVESGGGLVQPGGSLRLSCAASGFTFSSFGMHWVRQAPGKGLEWVAYINGGSSTIFYANAVKGRFTISRDNAKNTLYLQMNSLRAEDTAVYYCARYASYGGGAMDYWGQGTLVTVSS VL: DIQMTQSPSSLSASVGDRVTITCRSSQSIVHNDGNTYFEWYQQKPGKAPKLLIYKVSNRFSGVPSRFSGSGSGTHFTLTISSLQPEDFATYYCFQGSYVPLTFGQGTKVEIK
0

So what does the record say about % max Block for 19L04 (antibody, IgG4, V domains shown, From mouse immunisation; only variable domains given) VH: QIQLVQSGPELKKPGETVKISCKASGYTFTTYGMSWVKQAPGKGLKWMGWINTYSGVPTYADDFKGRFAFSLETSASTAYLQINNLKIEDTATYFCARHYYGSHYFDYWGQGTTLTVSS VL: DIMMTQSPSSLAMSVGQKVTLRCKSSQSLLNSSNQKNYLAWYQQKPGQSPKLLVYFASTRESGVPVRFIGSGSGTDFTLTISSMQAEDLADYFCQQHYFSPLTFGAGTKLELK ?
0

Tell me the measured % max Block of 2E12 (antibody, V domains shown, Mouse hybridoma mAb; only variable domains given) VH: QVQLQQSGAELARPGASVKLSCKASGYTFTNYGLNWVKQRTGQGLEWIGEIYPRSGNTYYNEKFKGKATLTADKSSSTAYMQLSSLTSEDSAVYFCATEGAYWGQGTLVTVSA VL: DIVMTQTPLTLSVTIGQPASISCKSSQSLLHGNGKTYLNWLLQRPGQSPKLLIYLVSKLESGIPDRFSGSGSGTDFTLEISRVEAEDLGIYYCLQSTHFPRTFGGGTKLEIK , please.
0

# % max Block lookup, item 20I15 (antibody, V domains shown, From mouse immunisation; only variable domains given; also called 20115) VH: EVKLVESGGGLVQPGGSLSLSCAASGFTFTDYYMSWVRQPPGKALEWLGFIRNKANGYTTEYSASVKGRFTISRDNSQSILYLQMNALRAEDSATYYCARTYLRRGYFDVWGTGTTVTVSS VL: DIVLTQSPASLAVSLGQRATISCRASKSVSTSGYSYMHWFQQKPGQPPKLLIYLASNLESGVPARFSGSGSGTDFTLNIHPVEEEDAATYYCQHSRELPLTFGAGTKLELK
52
